tested on: KHOS-240S; assay: relative viability vs DMSO control (72 h) (fraction); higher = more viable cells; conditions: 0.3704 µM
Reported relative viability values are given for each entry in this list.
Please respond with just the number, no unit label.

As a guide, the following entries are already answered.
                              line_notation  observed_value
0  CCN(c1cc(-c2ccc(CN3CCOCC3)cc2)cc(C(=O)NCc2c(C)cc(C)[nH]c2=O)c1C)C1CCOCC1           0.986
1  N#Cc1ccnc(N2C(=O)CC[C@H]2C(=O)N(c2cncc(F)c2)[C@H](C(=O)NC2CC(F)(F)C2)c2ccccc2Cl)c1            1.03
2  CCCS(=O)(=O)N[C@H]1C[C@@H](N(C)c2ncnc3[nH]ccc23)C1            1.02
3  COc1cc(Nc2c(C#N)cnc3cc(OCCCN4CCN(C)CC4)c(OC)cc23)c(Cl)cc1Cl           0.962
4  FC(F)(F)c1ccc(CNc2ccc(Cc3c[nH]c4ncc(Cl)cc34)cn2)cn1            1.06
5  COc1cc2nccc(Oc3ccc(NC(=O)NC4CC4)c(Cl)c3)c2cc1C(N)=O           0.824

Now for a further molecule.
Prompt line: Please indicate relative viability recorded for CNC(=O)c1cc(Oc2ccc(NC(=O)Nc3ccc(Cl)c(C(F)(F)F)c3)cc2)ccn1
Response line: 1.11

---

system: G401; experiment: relative viability vs DMSO control (72 h) (fraction); higher = more viable cells; conditions: 0.00051 µM
relative viability values by entry
Quick one: just the number, no unit, thanks!

Prompt line: Give the measured relative viability for COc1cc2ncnc(Nc3cccc(Cl)c3F)c2cc1OC(=O)N1CCN(C)C[C@H]1C [AZD-3759]
Response line: 1.06

Prompt line: Output measured relative viability for this item: C#Cc1cccc(Nc2ncnc3cc(OCCOC)c(OCCOC)cc23)c1 [Erlotinib]
Response line: 1.05

Prompt line: Provide measured relative viability value, entry: C[C@@H](Oc1cc(-c2cnn(C3CCNCC3)c2)cnc1N)c1c(Cl)ccc(F)c1Cl [Crizotinib]
Response line: 0.995

Prompt line: Consider the compound CN1CCN(CCOc2cc(OC3CCOCC3)c3c(Nc4c(Cl)ccc5c4OCO5)ncnc3c2)CC1 [Saracatinib] and give its recorded relative viability.
Response line: 1.05

---

# relative viability values compiled below
test system: SW982; assay: relative viability vs DMSO control (72 h) (fraction); higher = more viable cells; conditions: 0.00457 µM
Reply with the value as a number alone.

Take a look at these entries with their results.
>>> df
                                   molecule  observed_value
0  C[C@@H](Oc1cc(-c2cnn(C3CCNCC3)c2)cnc1N)c1c(Cl)ccc(F)c1Cl            1.05
1  CCCCCCCCCCCCCCCCCCOP(=O)([O-])OC1CC[N+](C)(C)CC1            1.08
2  COc1cc2c(Oc3ccc4[nH]c(C)cc4c3F)ccnc2cc1OCC1(N)CC1            1.05
3  Cc1cn(-c2cc(NC(=O)c3ccc(C)c(Nc4nccc(-c5cnccn5)n4)c3)cc(C(F)(F)F)c2)cn1            1.07
4  CCCS(=O)(=O)N[C@H]1C[C@@H](N(C)c2ncnc3[nH]ccc23)C1            1.04

Prompt line: Determine its reported relative viability: FC(F)(F)c1ccc(CNc2ccc(Cc3c[nH]c4ncc(Cl)cc34)cn2)cn1
Response line: 1.07

Prompt line: Consider the molecule C[C@H]1Oc2cc(cnc2N)-c2c(nn(C)c2C#N)CN(C)C(=O)c2ccc(F)cc21 and give its recorded relative viability.
Response line: 1.04

---

system: RD; assay: relative viability vs DMSO control (72 h) (fraction); higher = more viable cells; conditions: 0.01372 µM
measured-parameter: relative viability
Please respond with just the number, no unit label.

For orientation, consider the following solved cases.
>>> print(df.to_string())
                              line_notation  measured_parameter  observed_value
0  NC(=O)c1cccc2cn(-c3ccc([C@@H]4CCCNC4)cc3)nc12  relative viability            1.09
1  Cc1nc(Nc2ncc(C(=O)Nc3c(C)cccc3Cl)s2)cc(N2CCN(CCO)CC2)n1  relative viability           0.953
2  COc1cc2c(Oc3ccc4[nH]c(C)cc4c3F)ccnc2cc1OCC1(N)CC1  relative viability            1.06

Prompt line: Identify relative viability associated with the compound C#Cc1cccc(Nc2ncnc3cc(OCCOC)c(OCCOC)cc23)c1
Response line: 1.07

Prompt line: Output measured relative viability for this item: COc1cc(OC)cc(N(CCNC(C)C)c2ccc3ncc(-c4cnn(C)c4)nc3c2)c1
Response line: 1.09

Prompt line: Name the recorded relative viability of the item CCCCCCCCCCCCCCCCCCOP(=O)([O-])OC1CC[N+](C)(C)CC1 in your answer.
Response line: 1.07

Prompt line: Return the recorded relative viability value; entry: Cc1cn(-c2cc(NC(=O)c3ccc(C)c(Nc4nccc(-c5cccnc5)n4)c3)cc(C(F)(F)F)c2)cn1
Response line: 1.11

Prompt line: Please indicate relative viability recorded for Cc1c(F)cc(C(=O)NC2CC2)cc1-c1ccc(C(=O)NCC(C)(C)C)cn1
Response line: 1.12

---

relative viability values, listed per item
system: MES-SA; assay: relative viability vs DMSO control (72 h) (fraction); higher = more viable cells; details: 0.00152 µM

The cases that follow already have their relative viability on record.
>>> df
                              line_notation  observed_value
0  Cc1cc(Nc2ncc(Cl)c(Nc3ccccc3S(=O)(=O)C(C)C)n2)c(OC(C)C)cc1C1CCNCC1            0.95
1  N#Cc1ccnc(N2C(=O)CC[C@H]2C(=O)N(c2cncc(F)c2)[C@H](C(=O)NC2CC(F)(F)C2)c2ccccc2Cl)c1           0.932
2  CCCS(=O)(=O)N[C@H]1C[C@@H](N(C)c2ncnc3[nH]ccc23)C1             0.9
3  C[C@@H](Oc1cc(-c2cnn(C3CCNCC3)c2)cnc1N)c1c(Cl)ccc(F)c1Cl           0.943
4  Cc1ccc(NC(=O)c2ccc(CN3CCN(C)CC3)cc2)cc1Nc1nccc(-c2cccnc2)n1           0.992
5  Cc1c(F)cc(C(=O)NC2CC2)cc1-c1ccc(C(=O)NCC(C)(C)C)cn1           0.967
6  Cc1cccc(-c2[nH]c(CNc3ccccc3F)nc2-c2ccc3ncnn3c2)n1           0.885

// next item, relative viability requested
Prompt line: Identify relative viability associated with the compound COc1cc2nccc(Oc3ccc(NC(=O)NC4CC4)c(Cl)c3)c2cc1C(N)=O
Response line: 0.971

---

test system: RD-ES; assay: relative viability vs DMSO control (72 h) (fraction); higher = more viable cells; conditions: 0.00152 µM
measured-parameter: relative viability
Answer with the value's number alone.

Guide cases for relative viability, answers given:
In [3]: df
Out[3]:
                              line_notation  measured_on  measured_parameter  observed_value
0  Cc1nc(Nc2ncc(C(=O)Nc3c(C)cccc3Cl)s2)cc(N2CCN(CCO)CC2)n1        RD-ES  relative viability           0.966
1  Cc1c(F)cc(C(=O)NC2CC2)cc1-c1ccc(C(=O)NCC(C)(C)C)cn1        RD-ES  relative viability            1.02
2  COc1cc2c(Oc3ccc4[nH]c(C)cc4c3F)ccnc2cc1OCC1(N)CC1        RD-ES  relative viability           0.969
3  C=CC(=O)Nc1cc(Nc2nccc(-c3cn(C)c4ccccc34)n2)c(OC)cc1N(C)CCN(C)C        RD-ES  relative viability           0.977
4  Cc1ccc(C(=O)OCc2ccc([C@@H](CN)C(=O)Nc3ccc4cnccc4c3)cc2)c(C)c1        RD-ES  relative viability           0.971
5  CN(C)C[C@@H]1CCn2cc(c3ccccc32)C2=C(C(=O)NC2=O)c2cn(c3ccccc23)CCO1        RD-ES  relative viability           0.989
6  COc1cc2nccc(Oc3ccc(NC(=O)NC4CC4)c(Cl)c3)c2cc1C(N)=O        RD-ES  relative viability           0.959
7  COc1cc(Nc2c(C#N)cnc3cc(OCCCN4CCN(C)CC4)c(OC)cc23)c(Cl)cc1Cl        RD-ES  relative viability           0.987

Prompt line: Please report relative viability for the following compound: CCCCCCCCCCCCCCCCCCOP(=O)([O-])OC1CC[N+](C)(C)CC1
Response line: 1.03

Prompt line: Give the value of relative viability reported for the following: C1=N/C2=N/c3ccc(OCCN4CCCC4)c(c3)COC/C=C/COCc3cccc(c3)C(=C1)N2
Response line: 1.04

Prompt line: Hello, please tell me recorded relative viability for this one: CCCS(=O)(=O)N[C@H]1C[C@@H](N(C)c2ncnc3[nH]ccc23)C1
Response line: 0.985

Prompt line: Assign relative viability to the following record: C[C@@H]1COC(Nc2ccc3ncnc(Nc4ccc(OCc5nccs5)c(Cl)c4)c3c2)=N1
Response line: 0.957
